# Tested on: Mus musculus
# ASSAY SUMMARY: Analgesic activity in Swiss albino mouse assessed as p-benzoquinone-induced writhing at 100 mg/kg, po administered 60 mins before benzoquinone challenge
# Assay type: functional
MEASURED PROPERTY: inhibition in vivo at 100 mg/kg (%)
Numbers only, in %.

Previously resolved entries follow.
Task: Recorded inhibition in vivo at 100 mg/kg of CC(=O)c1sc2c(c1C)C(=O)N(N)C(S[C@@H]1O[C@H](CO)[C@H](O)[C@H](O)[C@H]1O)N2 (some centres not stated) , please.
Result: 35.7

Task: Please give the measured inhibition in vivo at 100 mg/kg for this molecule: CC(=O)Oc1ccccc1C(=O)O
Result: 51.9

Task: Value lookup for inhibition in vivo at 100 mg/kg; key = CCOC(=O)c1sc2nc(S[C@@H]3O[C@H](COC(C)=O)[C@@H](OC(C)=O)[C@H](OC(C)=O)[C@H]3OC(C)=O)n(N)c(=O)c2c1C
Result: 37.9

Task: Given the entry CCOC(=O)c1sc2c(c1C)C(=O)N(N)C(S[C@@H]1O[C@H](CO)[C@@H](O)[C@H](O)[C@H]1O)N2 (some centres not stated) , report its measured inhibition in vivo at 100 mg/kg.
Result: 51

Task: Please look up its inhibition in vivo at 100 mg/kg: CC(=O)c1sc2nc(S[C@@H]3O[C@H](CO)[C@@H](O)[C@@H]3O)n(N)c(=O)c2c1C
Result: 48.8

Hi there! I need inhibition in vivo at 100 mg/kg for each item below, if you can.
1. CC(=O)OC[C@H]1O[C@@H](Sc2nc3sc(C(C)=O)c(C)c3c(=O)n2N)[C@@H](OC(C)=O)[C@@H]1OC(C)=O
2. CC(=O)c1sc2[nH]c(=S)n(N)c(=O)c2c1C
3. CCOC(=O)c1sc2[nH]c(=S)n(N)c(=O)c2c1C
4. CCOC(=O)c1sc2nc(S[C@@H]3O[C@H](CO)[C@@H](O)[C@@H]3O)n(N)c(=O)c2c1C

Result:
1: 48.8; 2: 35.7; 3: 23.9; 4: 53.3
